TEST_SYSTEM: TDP-43 RRM1 (hRRM1) WT (human, UniProt Q13148 101-191)
Sequence (Q13148 101-191): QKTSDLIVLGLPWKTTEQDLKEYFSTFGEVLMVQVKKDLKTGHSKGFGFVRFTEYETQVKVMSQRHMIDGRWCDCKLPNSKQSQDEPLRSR
ASSAY_INFO: filter binding; Filter binding: 50 mM phosphate, 50 mM imidazole, 10 mM beta-mercaptoethanol, pH 7.5, room temperature, 30 min, 10 pmol 32P-labelled nucleic acid
APPLIED_CONDITIONS: protein: recombinant; tags: N-terminal His (pQE30); label: 5'-32P
OBSERVABLE: Kd

Please report the recorded Kd for TGTGTGTGTGTGTGTGTGTGTGTGTGTGTG (ssDNA) [(TG)15 DNA] . 20.6 nM
